Each recorded value in this set is attributed to paper PMC5421726.

Test: Unbound fraction in mouse plasma in vitro
Type: in vitro ADME
assayMetric: fraction unbound

For the molecule O=C(Nc1c(Cl)cncc1Cl)c1ccc(OC(F)F)c(OCC2CC2)c1 , give its reported fraction unbound.
0.037
